Biological target: Myc.His.CK1a
Assay: c-Myc immunoprecipitation (CK1a IP)
Conditions: strains cultured in LL; n = 4; parent: est. 1.0; read off a plot
The entries below come with measured ratio to parent values attached.

monomer-sequence: FREQUENCY (FRQ), wild type (from UniProt P19970) V320I
ratio to parent: 0.52
--
monomer-sequence: FREQUENCY (FRQ), wild type (from UniProt P19970) Q494N
ratio to parent: 0.68
--
monomer-sequence: FREQUENCY (FRQ), wild type (from UniProt P19970) Q325N
ratio to parent: 0.97
--
monomer-sequence: FREQUENCY (FRQ), wild type (from UniProt P19970) L488V
ratio to parent: 0.23
